- ASSAYED_TARGET: T1, human SLC-1 (human)
- T1 construct: also called hSLC-1; human SLC-1(S)
- TEST_NAME: radioligand competition against [125I]-labeled MCH(4-19) on human SLC-1-expression CHO cell membrane fraction (2.5 µg/ml), filtration, γ-counter
Positions of bridges follow the written chain, without caps; N, C: chain ends. No end group written: not given here.
RECORDED_METRIC: pIC50
Numbers only, as −log10 of the molar value.

**Query** Looking for the measured pIC50 of DFDMLRCMLGRVYRPCWQV (ligand, disulfide 7-16, also called synthetic MCH; synthetic rat MCH) [melanin concentrating hormone (MCH), rat MCH] , can you help?
**Result** 9.70

All figures here come from patent US6991908.
